System: NCI-H23 lung
Assay: NCI-60 one-dose screen, 48 h (100 = growth as untreated, 0 = no growth, -100 = all killed)
Conditions: 10 µM
Compounds without any hit were thinned out: in the full panel of roughly 83,000, 20% have a hit.
// label = true if growth is not less than 60%, otherwise false

Completed entries (count: 5):
| COMPOUND | ASSIGNED_LABEL |
| --- | --- |
| CNc1ncc(-c2ccc(C(F)(F)F)cc2)c(NC2CCCCCC2)n1 | true |
| O=[N+]([O-])c1cccc(-c2ncc(-c3ccc(Cl)cc3Cl)[nH]2)c1 | true |
| Nc1ccccc1NC(=O)CCCCC(=O)Nc1ccc2c(c1)/C(=C/c1ccc[nH]1)C(=O)N2 | true |
| Nc1ccc2c(c1)Cc1cc(N)c(Br)cc1-2 | true |
| COc1ccc(Nc2cc(C)nc(NCCCNc3ccnc4cc(Cl)ccc34)n2)cc1 | true |

Consider the record given below.
Q) Does growth meet or surpass 60% for CCCCCCCCN(CCCCCCCC)CCCCCCCCCN1CCCc2cc(OC)ccc21 ?
A) true

###

Tested on: DU-145 prostate
Experiment: NCI-60 one-dose screen, 48 h
Settings: 10 µM
About 83,000 compounds went through this panel and 20% of them were active in at least one assay; those are over-represented in the sample as a whole. Active and inactive are the calls of the source. The calls were made as follows: active = growth percent below 10; inactive = the rest.
The categories you may choose from are active, inactive

Completed entries (count: 8):
| COMPOUND | ASSIGNED_LABEL |
| --- | --- |
| COc1ccc(OC)c(/C=C/c2nnc(Nc3ccc(Cl)cc3)o2)c1 | inactive |
| COc1ccc(-c2nc3sc(-c4ccc(OC)cc4)c(-c4ccc(OC)cc4)n3c2/C=C/c2ccc(C(C)C)cc2)cc1 | inactive |
| C#Cc1ccc(-n2c(/C=C/c3ccc(C(F)(F)F)cc3)nc3ncccc3c2=O)cc1 | inactive |
| O=C1/C(=C\c2ccc(F)cc2)CN(C(=O)c2ccccc2F)C/C1=C\c1ccc(F)cc1 | active |
| Nc1ncn([C@@H]2O[C@H](CO)[C@@H](O)[C@H]2O)c(=O)n1 | inactive |
| c1ccc2c(-c3nc(N4CCOCC4)c4c5c(sc4n3)CCCCCC5)cccc2c1 | inactive |
| N=c1nc(N)ncn1-c1ccccc1 | inactive |
| O=C1/C(=C/c2ccc(Cl)cc2)SC(=Nc2ccc(Cl)cc2)N1Cc1nc2ccccc2[nH]1 | inactive |

Consider the record given below.
Q) // return assay outcome for Cc1c(Cl)cccc1NC(=O)c1sc2nc3c(cc2c1N)C(=O)CCC3
A) active

###

As shown below, each of these molecules has a reported growth value.
Tested on: SK-MEL-5 melanoma
Assay: NCI-60 one-dose screen, 48 h (100 = growth as untreated, 0 = no growth, -100 = all killed)
Conditions: 10 µM
Method: Growth inhibition of the SK-MEL-5 human tumor cell line is measured as a screen for anti-cancer activity. Cells are grown in 96 well plates and exposed to the test compound for 48 hours. Compounds are tested at a single concentration, which is 10^-5 M for most compounds. The reported endpoint is percent growth (GI% or GIPRCNT), where numbers from 0 - 100% represent growth inhibition, and numbers from -100% - 0 represent cell death. For example, a value of 40 represents 60% growth inhibition. […]
About 83,000 compounds went through this panel and 20% of them were active in at least one assay; those are over-represented in the sample as a whole.
Number only, in %; omit the unit.

Previously resolved entries follow.
| MOLECULE | UNIT_DESCRIPTOR | growth |
| --- | --- | --- |
| Nc1nc(N=Nc2ccc(O)cc2)cc(=O)[nH]1 | % | 96.6 |
| COc1ccc2c(c1)N(CCO)C1=C(C(=O)OC1)C2c1cc(OC)c(OC)c(OC)c1 (stereo unspecified) | % | -24.7 |
| COc1cc(-c2nc(Nc3nc4ccccc4s3)[nH]c(=O)c2C#N)cc(OC)c1O | % | 106 |
| COc1ccc(CN2CCC(N3CCCC3=O)c3cc(Cl)ccc32)cc1 (stereo unspecified) | % | 103 |
| COC(=O)C(C(C[N+](=O)[O-])c1ccccc1)=P(c1ccccc1)(c1ccccc1)c1ccccc1 (stereo unspecified) | % | 98.5 |

Q) Report growth for Cc1cc(Cl)nc(N(CCCNc2ccnc3cc(Cl)ccc23)Cc2cccs2)n1 tested on SK-MEL-5 melanoma.
A) -74.3

Q) Further, for COc1cc(Cl)cc(-c2nn(-c3cccc(NC(=O)c4ccc(Cl)c(Cl)c4)c3)cc2-c2ccncc2)c1 ?
A) 78.5

Q) Further, for COc1ccc2c(c1)sc1nc(-c3ccccc3)c(-c3cccnc3)n12 ?
A) 77.7

Q) Further, for C[C@]12CC[C@@H]3c4ccc(O)cc4C[C@@H](O)[C@H]3[C@@H]1CC[C@@H]2O ?
A) 96

###

Tested on: MDA-MB-231 breast
Assay: NCI-60 one-dose screen, 48 h
Details: 10 µM
About 83,000 compounds went through this panel and 20% of them were active in at least one assay; those are over-represented in the sample as a whole. Activity calls are given as the source filed them. The calls were made as follows: active = growth percent below 10; inactive = the rest.
The categories you may choose from are active, inactive

Completed entries (count: 8):
| COMPOUND | EXPERIMENTAL_TARGET | ASSIGNED_LABEL |
| --- | --- | --- |
| O=C(CCCCC[P+](c1ccccc1)(c1ccccc1)c1ccccc1)NC(COC(=O)C(Cl)Cl)(COC(=O)C(Cl)Cl)COC(=O)C(Cl)Cl | MDA-MB-231 breast | inactive |
| Oc1[nH]c2cc(Cl)ccc2c1/C=c1/ccc2c(c1)N=C(c1cc(F)cc(F)c1)N=2 | MDA-MB-231 breast | inactive |
| COc1ccc(-c2nc3sccn3c2-c2nc3c([nH]2)C(=O)c2ccccc2C3=O)cc1 | MDA-MB-231 breast | inactive |
| CCCCCCN1C(=O)C2=C(c3ccc(Cl)cc3)Nc3c(c(C)nn3-c3ccccc3)C2c2ccccc21 (stereo not given) | MDA-MB-231 breast | inactive |
| COc1cc2c(cc1OCCCCCCN1CCN(CC(=O)Nc3ccc(Cl)cc3C(=O)c3ccccc3Cl)CC1)N=CC1CCCN1C2=O (stereo not given) | MDA-MB-231 breast | active |
| O=c1oc2cc(OS(=O)(=O)c3ccccc3)ccc2c2c1CCCCC2 | MDA-MB-231 breast | inactive |
| CN(C)CC(O)c1ccc2cc(Br)c3ccccc3c2c1 (stereo not given) | MDA-MB-231 breast | inactive |
| O=C(c1cccs1)c1ccccc1Cc1ccccc1 | MDA-MB-231 breast | inactive |

Q) // return assay outcome for CCOC(=O)N1C/C(=C/c2ccc(OC)cc2)C(=O)/C(=C/c2ccc(OC)cc2)C1
A) inactive

Q) Further, for Cc1ccc(Nc2cc(C)nc(NCCCNc3ccnc4cc(Cl)ccc34)n2)cc1 ?
A) active

###

Test system: MOLT-4 leukemia
Assay: NCI-60 one-dose screen, 48 h (100 = growth as untreated, 0 = no growth, -100 = all killed)
Conditions: 10 µM
The panel holds about 83,000 compounds, 20% with a hit somewhere; the sample as a whole holds those more often.
Classify on growth using low = under 30%, medium = from 30% up to 90%, high = 90% and over

Completed entries (count: 5):
| COMPOUND | ASSIGNED_LABEL |
| --- | --- |
| O=C1OCC2=C1C(c1ccc(Cl)c(Cl)c1)c1cc3c(cc1N2CCO)OCCO3 (configuration not stated) | low |
| CN(C)N=Nc1nn(C(=O)Nc2ccc(Cc3ccccc3)cc2)c2ccccc12 | medium |
| CCCCCCCNc1nc(C=O)ncc1-c1ccc(C(F)(F)F)cc1 | medium |
| Cc1cccc(NC2=C(C#N)C(=O)NC3(CCCC3)S2)c1 | high |
| COc1ccc2c(c1)C(=O)c1c-2c(OCCN2CCCCC2)nc2ccc(OC)cc12 | low |

Q) # bin label for CCN(CC)CCCC(C)Nc1ccc2ccc(Cl)cc2n1 (configuration not stated)
A) high

Q) Further, for Clc1cc2c(c(CSc3nc4ccccc4n4cccc34)c1)OCOC2 ?
A) high

Q) Further, for Nc1c(C(=O)Nc2cccc3ccccc23)sc2nc3c(cc12)C(=O)CCC3 ?
A) low

Q) Further, for CN(C)C(=S)N/N=C\C=N/NC(=S)N(C)C ?
A) low

Q) Further, for Clc1nc(Cl)c2c(ncn2C/C=C\Cn2cnc3c(Cl)nc(Cl)nc32)n1 ?
A) low

Q) Further, for COc1ccc(-c2nnc(-c3c(-c4ccccc4)nc4ncccn34)o2)cc1OC ?
A) high

Q) Further, for CC(C)(C)c1ccc(N2CSC(=S)N(c3ccc(C(C)(C)C)cc3)C2)cc1 ?
A) high

Q) Further, for O=[P@@]1(c2ccccc2)O[C@H](COCc2ccccc2)[C@@H](OCc2ccccc2)[C@H](OCc2ccccc2)[C@H]1O ?
A) high

###

System: SN12C renal
Assay: NCI-60 one-dose screen, 48 h
Settings: 10 µM
The panel holds about 83,000 compounds, 20% with a hit somewhere; the sample as a whole holds those more often. Active and inactive are the calls of the source. How the source made its calls: active means growth percent below 10; inactive means the rest.
The categories you may choose from are y (active), n (inactive)

Completed entries (count: 7):
| MOLECULE | ASSIGNED_LABEL |
| --- | --- |
| C[C@@H]1C=C2C(=O)O[C@@H]3CC[C@H](C1)[C@]23O | n |
| Cn1c([N+](=O)[O-])cnc1/C=C1\Oc2cc(Cl)ccc2C1=O | y |
| O=C1/C(=C\c2ccccc2)CN(C(=O)c2ccccc2F)C/C1=C\c1ccccc1 | y |
| CC(C)(C#N)Nc1ccccc1 | n |
| C=C(NC(=O)C(=C)NC(=O)c1csc(C2=NC3c4csc(n4)C4NC(=O)c5csc(n5)C(C(C)(O)C(C)O)NC(=O)C5CSC(=N5)/C(=C/C)NC(=O)C(C(C)O)NC(=O)c5csc(n5)C3(CC2)NC(=O)C(C)NC(=O)C(=C)NC(=O)C(=C)NC(=O)C(C(C)C)NC2C=Cc3c(C(C)O)cc(nc3C2O)C(=O)OC4C)n1)C(N)=O (stereo not drawn) | n |
| N#Cc1ncc(-c2cc(F)c(F)c(F)c2)c(NC2CCCCCC2)n1 | n |
| COc1ccc2c(c1)C(=O)c1c-2c(OCCN2CCCCC2)nc2ccc(OC)cc12 | n |

Q) // return assay outcome for COc1ccc(-c2nc3ncccn3c2-c2nnc(-c3ccsc3C)o2)cc1
A) n
